- Read-out: Tumor necrosis factor receptor 1 (TNFRSF1A), TNFRSF1A (gene 7132)
- PROCEDURE_DETAILS: LTEA_HepaRG_TNFRSF1A: Life Technologies and Expression Analysis (LTEA) Assay for Tumor necrosis factor receptor 1 (TNFRSF1A) using HepaRG (AID 2283535)
- CONDITION_LABEL: mRNA level, 48 h; actives raise or lower the signal
Active and inactive are the calls of the source. The calls were made as follows: active = hit-call score of the fitted dose curve at least 0.9, where 1 is the maximum; inactive = score below 0.9.
Give one outcome, nothing more. List: active, inactive

Solved cases below.
[[record]]
compound = "C[C@@H]1C[C@@H]([C@H](O)CC2CC(=O)NC(=O)C2)C(=O)[C@@H](C)C1"
label_value = "active"

[[record]]
compound = "C=C(C)C(=O)[O][Sn]([CH2]CCC)([CH2]CCC)[CH2]CCC"
label_value = "inactive"

[[record]]
compound = "CC(C)(C)c1cc(O)ccc1O"
label_value = "inactive"

[[record]]
compound = "ClC1(Cl)C2(Cl)C3(Cl)C4(Cl)C(Cl)(Cl)C5(Cl)C3(Cl)C1(Cl)C5(Cl)C24Cl (stereo unspecified)"
label_value = "inactive"

[[record]]
compound = "O=c1[nH]c(=O)[nH]c(=O)[nH]1"
label_value = "inactive"


Next item in the queue.
### Prompt Given Cn1sc(Cl)cc1=O , state the outcome it received in this test.
### Response inactive

* * *

- PROCEDURE_DETAILS: ATG_M_61_CIS: Attagene CIS-FACTORIAL HepG2 Assay for M61 Transcription Factor (Internal Marker) (AID 2282937)
- CONDITION_LABEL: HepG2 Attagene CIS-FACTORIAL M61 internal marker reporter; actives raise or lower the signal
The source made the active and inactive calls. The calls were made as follows: active = hit-call score of the fitted dose curve at least 0.9, where 1 is the maximum; inactive = score below 0.9.
EXPERIMENTAL_READOUT: outcome

[[record]]
compound = "O=CC=O"
experimental_readout = "outcome"
reported_value = "inactive"

[[record]]
compound = "Nc1ccc(N=Nc2ccc(-c3ccc(N=Nc4c(S(=O)(=O)O)cc5cc(S(=O)(=O)O)c(N=Nc6ccccc6)c(O)c5c4N)cc3)cc2)c(N)c1"
experimental_readout = "outcome"
reported_value = "inactive"

[[record]]
compound = "CCNc1nc(NC(C)(C)C)nc(SC)n1"
experimental_readout = "outcome"
reported_value = "inactive"

[[record]]
compound = "CC(=O)c1cc(C(C)(C)C)cc2c1CCC2(C)C"
experimental_readout = "outcome"
reported_value = "inactive"

[[record]]
compound = "Clc1ccc(COC(Cn2ccnc2)c2ccc(Cl)cc2Cl)cc1 (stereo unspecified)"
experimental_readout = "outcome"
reported_value = "inactive"


### Prompt // returns reported outcome for input ClCc1ccccn1
### Response inactive

* * *

- Read-out: succinate dehydrogenase complex iron sulfur subunit B (SDHB), SDHB (gene 6390)
- PROCEDURE_DETAILS: LTEA_HepaRG_SDHB: Life Technologies and Expression Analysis (LTEA) Assay for succinate dehydrogenase complex iron sulfur subunit B (SDHB) using HepaRG (AID 2283528)
- CONDITION_LABEL: mRNA level, 48 h; actives raise or lower the signal
Calls of active or inactive are those of the source. The calls were made as follows: active = hit-call score of the fitted dose curve at least 0.9, where 1 is the maximum; inactive = score below 0.9.
Give one outcome, nothing more. List: active, inactive

[[record]]
molecule = "NC(=O)O"
label_value = "inactive"


### Prompt Given ClC1(Cl)C2(Cl)C3(Cl)C4(Cl)C(Cl)(Cl)C5(Cl)C3(Cl)C1(Cl)C5(Cl)C24Cl (stereo not drawn) , state the outcome it received in this test.
### Response inactive

### Prompt Given O=[N+]([O-])c1ccc(O)c([N+](=O)[O-])c1 , state the outcome it received in this test.
### Response active

Ref: PubChem BioAssay (EPA / NIEHS)
